- target_or_test_system: Somatostatin receptor type 4 (Homo sapiens, UniProt P31391)
- Sequence (P31391 whole entry): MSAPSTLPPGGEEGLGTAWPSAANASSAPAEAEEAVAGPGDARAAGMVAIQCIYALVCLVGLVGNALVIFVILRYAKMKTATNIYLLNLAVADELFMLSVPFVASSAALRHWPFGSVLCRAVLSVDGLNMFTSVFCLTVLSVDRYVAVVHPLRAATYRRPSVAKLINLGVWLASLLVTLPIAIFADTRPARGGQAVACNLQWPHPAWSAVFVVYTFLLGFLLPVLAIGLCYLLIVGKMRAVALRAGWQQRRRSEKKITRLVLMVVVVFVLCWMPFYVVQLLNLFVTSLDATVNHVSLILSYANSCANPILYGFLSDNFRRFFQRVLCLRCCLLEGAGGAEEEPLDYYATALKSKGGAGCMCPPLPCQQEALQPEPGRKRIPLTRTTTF
Bridge positions count the residues as written; N and C are the ends. Square brackets hold non-standard residues; d marks the D form. Peptide text beside a SMILES is read from it. * marks the point of attachment. NH(1-naphthylmethyl) = c1ccc2c(CN*)cccc2c1; Phe(4-Cl) = N[C@@H](Cc1ccc(Cl)cc1)C(=O)O; dPhe(4-Cl) = N[C@H](Cc1ccc(Cl)cc1)C(=O)O; 2Nal = N[C@@H](Cc1ccc2ccccc2c1)C(=O)O; d2Nal = N[C@H](Cc1ccc2ccccc2c1)C(=O)O; Abu = CC[C@H](N)C(=O)O
The label 1 (yes) is reserved for Ki strictly under 200 nM; 0 (no) covers values equal to or above it.

compound="CC(C)[C@@H]1NC(=O)[C@H](CCCCN)NC(=O)[C@@H](Cc2c[nH]c3ccccc23)NC(=O)[C@H](Cc2ccc(O)cc2)NC(=O)[C@@H](NC(=O)[C@H](N)Cc2ccccc2)CSSC[C@@H](C(=O)N[C@@H](Cc2c[nH]c3ccccc23)C(N)=O)NC1=O [CAS_71306] (H-[dF]CY[dW]KVCW-NH2; disulfide 2-7)" discrete_label="1 (yes)"
compound="CC(C)[C@H](NC(=O)[C@H](CCCCN)NC(=O)[C@@H](Cc1c[nH]c2ccccc12)NC(=O)[C@H](Cc1ccc(O)cc1)NC(=O)[C@H](C)NC(=O)[C@H](N)Cc1ccc2ccccc2c1)C(=O)N[C@@H](C)C(=O)N[C@H](C(N)=O)[C@@H](C)O [D-Nal-Ala-Tyr-D-Trp-Lys-Val-Ala-Thr-NH2] (H-[d2Nal]AY[dW]KVAT-NH2)" discrete_label="0 (no)"
compound="C[C@@H](O)[C@H](NC(=O)[C@H](Cc1ccccc1)NC(=O)[C@@H](NC(=O)[C@H](CCCCN)NC(=O)[C@@H](Cc1c[nH]c2ccccc12)NC(=O)[C@H](Cc1ccc(O)cc1)NC(=O)[C@H](Cc1ccc(Cl)cc1)NC(=O)[C@H](N)Cc1ccccc1)[C@@H](C)O)C(N)=O [BIM 23068] (H-[dF][Phe(4-Cl)]Y[dW]KTFT-NH2)" discrete_label="1 (yes)"
compound="CC(C)[C@@H]1NC(=O)[C@H](CCCCN)NC(=O)[C@@H](Cc2c[nH]c3ccccc23)NC(=O)[C@H](Cc2ccc(O)cc2)NC(=O)[C@@H](NC(=O)[C@H](N)Cc2ccc3ccccc3c2)CSSC[C@@H](C(=O)N[C@@H](Cc2ccc3ccccc3c2)C(N)=O)NC1=O [BIM 23042] (H-[d2Nal]CY[dW]KVC[2Nal]-NH2; disulfide 2-7)" discrete_label="0 (no)"
compound="CC(O)C1NC(=O)C(CCCCN)NC(=O)C(Cc2c[nH]c3ccccc23)NC(=O)C(Cc2ccc(O)cc2)NC(=O)C(NC(=O)C(N)Cc2ccccc2)CSSCC(C(=O)NCc2cccc3ccccc23)NC1=O (centres undefined) [BIM 23060] (H-FCYWKTC-{NH(1-naphthylmethyl)}; disulfide 2-7; configuration not given here)" discrete_label="1 (yes)"
compound="CC(C)[C@H](NC(=O)[C@H](CCCCN)NC(=O)[C@@H](Cc1c[nH]c2ccccc12)NC(=O)[C@H](Cc1ccc(O)cc1)NC(=O)[C@H](C)NC(=O)[C@H](N)Cc1ccccc1)C(=O)N[C@@H](C)C(=O)N[C@@H](Cc1ccc2ccccc2c1)C(N)=O (H-[dF]AY[dW]KVA[2Nal]-NH2)" discrete_label="0 (no)"
compound="CC(C)[C@H](NC(=O)[C@H](CCCCN)NC(=O)[C@@H](Cc1c[nH]c2ccccc12)NC(=O)[C@H](Cc1ccc(O)cc1)NC(=O)[C@H](Cc1ccccc1)NC(=O)[C@H](N)Cc1ccccc1)C(=O)N[C@@H](Cc1ccccc1)C(=O)N[C@H](Cc1ccccc1)C(N)=O (H-[dF]FY[dW]KVF[dF]-NH2)" discrete_label="0 (no)"
compound="CC1NC(=O)C(CCCCN)NC(=O)C(Cc2c[nH]c3ccccc23)NC(=O)C(Cc2ccc(O)cc2)NC(=O)C(NC(=O)C(N)Cc2ccccc2)CSSCC(C(=O)NCc2cccc3ccccc23)NC1=O (centres undefined) [BIM 23034] (H-FCYWKAC-{NH(1-naphthylmethyl)}; disulfide 2-7; configuration not given here)" discrete_label="1 (yes)"
compound="CC(O)C1NC(=O)C(CCCCN)NC(=O)C(Cc2c[nH]c3ccccc23)NC(=O)C(Cc2ccccc2)NC(=O)C(NC(=O)C(N)Cc2ccccc2)CSSCC(C(=O)NCc2cccc3ccccc23)NC1=O (centres undefined) [EC5-21] (H-FCFWKTC-{NH(1-naphthylmethyl)}; disulfide 2-7; configuration not given here)" discrete_label="0 (no)"
compound="CC[C@H](NC(=O)[C@@H](N)Cc1ccc(Cl)cc1)C(=O)N[C@@H](Cc1ccc(O)cc1)C(=O)N[C@H](Cc1c[nH]c2ccccc12)C(=O)N[C@@H](CCCCN)C(=O)N[C@H](C(=O)N[C@@H](C)C(=O)N[C@H](Cc1ccccc1)C(N)=O)C(C)C [BIM 23067] (H-[Phe(4-Cl)][Abu]Y[dW]KVA[dF]-NH2)" discrete_label="0 (no)"
compound="CC(C)[C@H](NC(=O)[C@H](CCCCN)NC(=O)[C@@H](Cc1c[nH]c2ccccc12)NC(=O)[C@H](Cc1ccc(O)cc1)NC(=O)[C@H](Cc1ccc(Cl)cc1)NC(=O)[C@H](N)Cc1ccccc1)C(=O)N[C@@H](Cc1ccccc1)C(=O)N[C@H](C(N)=O)[C@@H](C)O [BIM 23057] (H-[dF][Phe(4-Cl)]Y[dW]KVFT-NH2)" discrete_label="1 (yes)"
compound="C[C@@H](O)[C@H](NC(=O)[C@H](Cc1ccccc1)NC(=O)[C@@H](NC(=O)[C@H](CCCCN)NC(=O)[C@@H](Cc1c[nH]c2ccccc12)NC(=O)[C@H](Cc1ccccc1)NC(=O)[C@H](Cc1ccccc1)NC(=O)[C@H](N)Cc1ccccc1)[C@@H](C)O)C(N)=O [CAS_133073-82-2] (H-[dF]FF[dW]KTFT-NH2)" discrete_label="1 (yes)"
compound="CC(C)[C@H](NC(=O)[C@H](CCCCN)NC(=O)[C@@H](Cc1c[nH]c2ccccc12)NC(=O)[C@H](Cc1ccc(O)cc1)NC(=O)[C@H](C)NC(=O)[C@H](N)Cc1ccc(Cl)cc1)C(=O)N[C@@H](C)C(=O)N[C@@H](Cc1ccc2ccccc2c1)C(N)=O [CAS_150155-67-2] (H-[dPhe(4-Cl)]AY[dW]KVA[2Nal]-NH2)" discrete_label="0 (no)"
